Attribution: the AptaBench aptamer set (doi:10.1093/nar/gkaf219)

System: DNA aptamer or structured DNA CTTACGACGGAGGTTGGGAAGGAGGGGGAGGCCGGAGAGTCGTAAG
Cond: 10 mM Tris-HCl, pH 7.4
Readout Name: binding call; also: call rule not given here

>  <Compound>
O=C1Nc2ccc(Cl)cc2C(c2ccccc2Cl)=NC1O (stereo not drawn)

>  <Readout Name>
binding call; also: call rule not given here

>  <Endpoint Result>
no binding

$$$$
>  <Compound>
OC[C@@H](O)[C@@H](O)[C@H](O)[C@H](O)CO

>  <Readout Name>
binding call; also: call rule not given here

>  <Endpoint Result>
no binding

$$$$
>  <Compound>
CN(C)CCOC(c1ccccc1)c1ccccc1

>  <Readout Name>
binding call; also: call rule not given here

>  <Endpoint Result>
no binding

$$$$
>  <Compound>
CCN(CC)CCOC(=O)c1ccc(N)cc1

>  <Readout Name>
binding call; also: call rule not given here

>  <Endpoint Result>
no binding

$$$$

Proceeding to the next compound to report its binding call.
Entry "CN[C@@H](C)Cc1ccccc1" , system DNA aptamer or structured DNA CTTACGACGGAGGTTGGGAAGGAGGGGGAGGCCGGAGAGTCGTAAG: what binding call was measured?
no binding

###

Tested on: DNA aptamer or structured DNA GGGACGACTAGTGCCTTCGCGTTGTTCGGGAATCCGGTTCTGTCGTCCC
Cond: 10 mM Tris-HCl, pH 7.4
Readout Name: binding call; also: call rule not given here

Example results:
>  <Compound>
COc1cc(CC(=O)O)ccc1O

>  <Readout Name>
binding call; also: call rule not given here

>  <Endpoint Result>
binds

$$$$
>  <Compound>
NCCc1ccc(O)c(O)c1

>  <Readout Name>
binding call; also: call rule not given here

>  <Endpoint Result>
binds

$$$$
>  <Compound>
CNC(C)Cc1ccc2c(c1)OCO2 (stereo not given)

>  <Readout Name>
binding call; also: call rule not given here

>  <Endpoint Result>
binds

$$$$
>  <Compound>
NCCc1c[nH]c2ccc(O)cc12

>  <Readout Name>
binding call; also: call rule not given here

>  <Endpoint Result>
binds

$$$$
>  <Compound>
NCC(O)c1ccc(O)c(O)c1 (stereo not given)

>  <Readout Name>
binding call; also: call rule not given here

>  <Endpoint Result>
no binding

$$$$

Suppose we examine the compound CC(NC(C)(C)C)C(=O)c1cccc(Cl)c1 (stereo not given) ; what binding call value has been reported?
binds

Suppose we examine the compound "CNC[C@H](O)c1ccc(O)c(O)c1" ; what binding call value has been reported?
no binding

Suppose we examine the compound "CCN(CC)CCOC(=O)c1ccc(N)cc1" ; what binding call value has been reported?
binds

Suppose we examine the compound "N[C@@H](Cc1ccccc1)C(=O)O" ; what binding call value has been reported?
no binding

Suppose we examine the compound "O=C(O)Cc1ccc(O)c(O)c1" ; what binding call value has been reported?
no binding

###

System: DNA aptamer or structured DNA CTTACGACTTGTTCTGAGGGTCAACGGTGGTGTAGTTAGTCGTAAG
Cond: 10 mM Tris-HCl, pH 7.4
Readout Name: Kd (µM)
Lab book: enter the figure in µM, no units written.

Suppose we examine the compound COC(=O)[C@@H]1C2CCC(C[C@@H]1OC(=O)c1ccccc1)N2C (stereo partly specified) ; what Kd value has been reported?
0.022

###

Test system: DNA aptamer or structured DNA CTTACGACTAGTTCTGAGGAATCAACGTCGGTGTAGTTGTCGTAAG
Cond: 10 mM Tris-HCl, pH 7.4
Readout Name: Kd (nM)
Lab book: enter the figure in nM, no units written.

Entry COC(=O)[C@@H]1C2CCC(C[C@@H]1OC(=O)c1ccccc1)N2C (stereo partly specified) , system DNA aptamer or structured DNA CTTACGACTAGTTCTGAGGAATCAACGTCGGTGTAGTTGTCGTAAG: what Kd was measured?
33

###

System: DNA aptamer or structured DNA GGGACGACGCCGGCTTTTAGGGGGGGTGTGGGTGGCGAGTCGTCCC
Cond: 10 mM Tris-HCl, pH 7.4
Readout Name: binding call; also: call rule not given here

Example results:
>  <Molecule>
CCC(=O)C(CC(C)N(C)C)(c1ccccc1)c1ccccc1 (stereo not given)

>  <Target Entity>
DNA aptamer or structured DNA GGGACGACGCCGGCTTTTAGGGGGGGTGTGGGTGGCGAGTCGTCCC

>  <binding call>
no binding

$$$$
>  <Molecule>
CNC(C)Cc1ccc2c(c1)OCO2 (stereo not given)

>  <Target Entity>
DNA aptamer or structured DNA GGGACGACGCCGGCTTTTAGGGGGGGTGTGGGTGGCGAGTCGTCCC

>  <binding call>
no binding

$$$$
>  <Molecule>
CCCCCc1cc(O)c2c(c1)OC(C)(C)C1CC=C(C)CC21 (stereo not given)

>  <Target Entity>
DNA aptamer or structured DNA GGGACGACGCCGGCTTTTAGGGGGGGTGTGGGTGGCGAGTCGTCCC

>  <binding call>
no binding

$$$$
>  <Molecule>
CCN(CC)CCOC(=O)c1ccc(N)cc1

>  <Target Entity>
DNA aptamer or structured DNA GGGACGACGCCGGCTTTTAGGGGGGGTGTGGGTGGCGAGTCGTCCC

>  <binding call>
no binding

$$$$

Suppose we examine the molecule "CNS(=O)(=O)Cc1ccc2[nH]cc(CCN(C)C)c2c1" ; what binding call value has been reported?
no binding

###

Tested on: DNA aptamer or structured DNA CTTACGACCAGGCTACGTGGGGGAGGGTGGGAAGACGGGTCGTAAG
Cond: 10 mM Tris-HCl, pH 7.4
Readout Name: binding call; also: call rule not given here

Example results:
>  <Compound>
COC(=O)[C@@H]1C2CCC(C[C@@H]1OC(=O)c1ccccc1)N2C (stereo partly specified)

>  <binding call>
no binding

$$$$
>  <Compound>
CC(=O)Nc1ccc(O)cc1

>  <binding call>
no binding

$$$$
>  <Compound>
O=C1Nc2ccc(Cl)cc2C(c2ccccc2Cl)=NC1O (stereo unspecified)

>  <binding call>
no binding

$$$$
>  <Compound>
COc1ccc2c(c1OC)C(=O)O[C@@H]2[C@H]1c2c(cc3c(c2OC)OCO3)CCN1C

>  <binding call>
binds

$$$$

Suppose we examine the compound "COc1ccc2c3c1O[C@H]1[C@@H](O)C=C[C@H]4[C@@H](C2)N(C)CC[C@@]341" ; what binding call value has been reported?
no binding

Suppose we examine the compound "COc1ccc(Cc2nccc3cc(OC)c(OC)cc23)cc1OC" ; what binding call value has been reported?
binds

###

Tested on: DNA aptamer or structured DNA CTTACGACAAGGGATGTTTGTTAGTGTGTCGGTGCATTGTCGTAAG
Cond: 10 mM Tris-HCl, pH 7.4
Readout Name: Kd

Suppose we examine the compound COC(=O)[C@@H]1C2CCC(C[C@@H]1OC(=O)c1ccccc1)N2C (stereo partly specified) ; what Kd value has been reported?
357 nM

###

Tested on: DNA aptamer or structured DNA GGGACGACTACGTAGCCCTGTCTCAGCGAGTTCGCGGAGTCGTCCC
Cond: 10 mM Tris-HCl, pH 7.4
Readout Name: Kd (nM)
Lab book: enter the figure in nM, no units written.

Suppose we examine the compound "COc1ccc2c3c1O[C@H]1C(=O)CC[C@@]4(O)[C@@H](C2)N(C)CC[C@]314" ; what Kd value has been reported?
1150

###

Test system: DNA aptamer or structured DNA CTTACGACATGGGATGTGTAGTTAGTGGTCGGATCCGGGTCGTAAG
Cond: 10 mM Tris-HCl, pH 7.4
Readout Name: Kd (nM)
Lab book: enter the figure in nM, no units written.

Suppose we examine the compound COC(=O)[C@@H]1C2CCC(C[C@@H]1OC(=O)c1ccccc1)N2C (stereo partly specified) ; what Kd value has been reported?
127

###

System: DNA aptamer or structured DNA GGGACGACGGCACGGGGTTATTCGTTGGTTGCACTGCGCTGGGAGGCAGTCGTCCC
Cond: 10 mM Tris-HCl, pH 7.4
Readout Name: binding call; also: call rule not given here

Example results:
>  <Compound>
CNC(C)Cc1ccc2c(c1)OCO2 (configuration not stated)

>  <Target Entity>
DNA aptamer or structured DNA GGGACGACGGCACGGGGTTATTCGTTGGTTGCACTGCGCTGGGAGGCAGTCGTCCC

>  <Endpoint Result>
binds

$$$$
>  <Compound>
C=C[C@H]1CN2CC[C@@H]1C[C@H]2[C@H](O)c1ccnc2ccc(OC)cc12

>  <Target Entity>
DNA aptamer or structured DNA GGGACGACGGCACGGGGTTATTCGTTGGTTGCACTGCGCTGGGAGGCAGTCGTCCC

>  <Endpoint Result>
binds

$$$$
>  <Compound>
CC(N)Cc1ccccc1 (configuration not stated)

>  <Target Entity>
DNA aptamer or structured DNA GGGACGACGGCACGGGGTTATTCGTTGGTTGCACTGCGCTGGGAGGCAGTCGTCCC

>  <Endpoint Result>
binds

$$$$
>  <Compound>
COc1cc(CC(=O)O)ccc1O

>  <Target Entity>
DNA aptamer or structured DNA GGGACGACGGCACGGGGTTATTCGTTGGTTGCACTGCGCTGGGAGGCAGTCGTCCC

>  <Endpoint Result>
no binding

$$$$

Entry "NCCc1ccc(O)cc1" , system DNA aptamer or structured DNA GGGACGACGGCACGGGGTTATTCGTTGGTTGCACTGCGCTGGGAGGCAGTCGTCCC: what binding call was measured?
no binding

Entry CNC(C)Cc1ccc(O)cc1 (configuration not stated) , system DNA aptamer or structured DNA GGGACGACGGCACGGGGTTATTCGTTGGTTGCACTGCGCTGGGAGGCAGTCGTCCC: what binding call was measured?
binds

Entry "CNC[C@H](O)c1ccc(O)c(O)c1" , system DNA aptamer or structured DNA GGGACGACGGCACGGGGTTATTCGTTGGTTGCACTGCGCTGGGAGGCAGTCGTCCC: what binding call was measured?
no binding
